# target_desc: Ubiquitin-conjugating enzyme E2 N/Ubiquitin-conjugating enzyme E2 variant 1 (Homo sapiens, UniProt P61088+Q13404)
# method_summary: Inhibition of human Ubc13-Uev1A interaction expressed in Escherichia BL21 after 15 mins by ELISA
assay_endpoint: IC50 (µM)
Numbers only, in µM.

> print(dat)
                         chemical.structure  measurement
1  C[C@@H](N)[C@@H](O)CCCCCCCCCCCCCCCCCCCCCCCC[C@H](O)[C@@H](C)N         8.25

Pending molecule:
Enquiry: Fill blank: measured IC50 of the molecule C[C@@H](N)[C@@H](O)C/C=C\C/C=C\C/C=C\C/C=C\C/C=C\C/C=C\CCCCCC[C@H](O)[C@@H](C)N is ____.
Return: 106

The values you see were collected from ChEMBL document CHEMBL1152207.
